- Tested on: HSkMC
- procedure-summary: cytotoxicity call (relative viability < 0.9)
- measurement-setup: 10 µM
Among all 39,000 compounds or so, about 1,500 (3.8%) were called active. The list comes from a sample in which actives are over-represented; it also holds close analogues and randomly drawn compounds.
Pick one: active, inactive

record-smiles: C[C@@H]1CN([C@@H](C)CO)C(=O)c2cccc(NC(=O)Nc3ccc(F)cc3)c2O[C@@H]1CN(C)Cc1ccc(-c2ccccc2)cc1
assigned-class: active

record-smiles: COc1ccc(S(=O)(=O)N(C)C[C@H]2Oc3ccc(NS(=O)(=O)c4ccc(C)cc4)cc3C(=O)N([C@H](C)CO)C[C@@H]2C)cc1
assigned-class: inactive

record-smiles: COc1ccc(NC(=O)Nc2ccc3c(c2)C(=O)N([C@H](C)CO)C[C@@H](C)[C@@H](CN(C)C(=O)NC(C)C)OCCCC[C@H](C)O3)cc1
assigned-class: inactive

record-smiles: CC[C@H]1OC[C@@H]2CN(C(=O)CN(C)C)CC[C@H]21
assigned-class: inactive

record-smiles: Cn1cc(-c2[nH]c3cc(NC(=O)[C@H](N)C4CCCCC4)cc4c3c2C=NNC4=O)cn1
assigned-class: active

query: // outcome(item) with item = CN1CCN(S(C)(=O)=O)CC1
result: inactive

query: // outcome(item) with item = COc1ccc(S(=O)(=O)N(C)C[C@H]2Oc3ncc(C#CC4(O)CCCC4)cc3C(=O)N([C@H](C)CO)C[C@H]2C)cc1
result: inactive

query: // outcome(item) with item = C[C@@H]1CN([C@H](C)CO)C(=O)c2cccc(NC(=O)Nc3ccc(F)cc3)c2O[C@H]1CN(C)Cc1ccc(-c2ccccc2)cc1
result: inactive

query: // outcome(item) with item = C[C@H](CO)N1C[C@H](C)[C@@H](CN(C)C(=O)Nc2cccc3ccccc23)Oc2ccc(NS(=O)(=O)c3ccc(F)cc3)cc2CC1=O
result: inactive

query: // outcome(item) with item = C[C@H](CO)N1C[C@H](C)[C@H](CN(C)S(C)(=O)=O)OCCCC[C@H](C)Oc2ccc(NS(=O)(=O)c3ccc(F)cc3)cc2C1=O
result: inactive

query: // outcome(item) with item = C[C@H](CO)N1C[C@H](C)[C@@H](CN(C)Cc2ccc(-c3ccccc3)cc2)Oc2c(NC(=O)Nc3ccc(F)cc3)cccc2C1=O
result: inactive

query: // outcome(item) with item = C[C@@H]1CN([C@@H](C)CO)C(=O)c2cccc(NC(=O)Nc3ccc(C(F)(F)F)cc3)c2O[C@H]1CN(C)Cc1ccc(C(=O)Nc2ccccc2N)cc1
result: inactive

query: // outcome(item) with item = COc1cccc(C#Cc2cnc3c(c2)C(=O)N([C@@H](C)CO)C[C@H](C)[C@@H](CN(C)C(=O)C2CCC2)O3)c1
result: inactive

query: // outcome(item) with item = C[C@H]1CN([C@@H](C)CO)S(=O)(=O)c2ccc(/C=C/c3ccccc3)cc2O[C@@H]1CN(C)C(=O)CN1CCOCC1
result: inactive

query: // outcome(item) with item = COc1ccc(NC(=O)Nc2ccc3c(c2)C(=O)N([C@H](C)CO)C[C@@H](C)[C@H](CN(C)S(=O)(=O)c2ccc(Cl)cc2)OCCCC[C@H](C)O3)cc1
result: inactive

---

- Tested on: HSkMC
- procedure-summary: cytotoxicity call (relative viability < 0.9)
- measurement-setup: 10 µM
Out of some 39,000 compounds screened, about 1,500 (3.8%) were called active. Shown is part of a subset that was picked to be rich in actives.
Pick one: active, inactive

Field: example entries. Status: answers known.
compound: C[C@@H]1CN([C@@H](C)CO)C(=O)c2cc(NC(=O)Nc3ccccc3)ccc2O[C@H]1CN(C)Cc1ccc(-c2ccccc2)cc1
tgt: HSkMC
assigned-class: inactive
--
compound: C[C@@H]1CN([C@@H](C)CO)C(=O)c2cc(NC(=O)Nc3ccc(C(F)(F)F)cc3)ccc2O[C@@H](C)CCCCO[C@H]1CN(C)C(=O)Cc1ccccc1
tgt: HSkMC
assigned-class: active
--
compound: C[C@@H]1CCCCO[C@H](CN(C)Cc2ccc(Cl)c(Cl)c2)[C@@H](C)CN([C@@H](C)CO)C(=O)c2cc(NC(=O)c3ccccc3)ccc2O1
tgt: HSkMC
assigned-class: inactive
--
compound: C[C@H](CO)N1C[C@H](C)[C@@H](CN(C)C(=O)Nc2ccccc2)OCCCC[C@H](C)Oc2ccc(NC(=O)Nc3ccc(F)cc3)cc2C1=O
tgt: HSkMC
assigned-class: inactive
--
compound: N#C[C@@H]1[C@H](c2ccc(C#Cc3ccccn3)cc2)[C@@H](CO)N1C(=O)CN1CCOCC1
tgt: HSkMC (human skeletal muscle cells)
assigned-class: inactive

query: // outcome(item) with item = CC1OC(OC2C(O)CC(OC3C(O)CC(OC4CCC5(C)C(CCC6C5CCC5(C)C(C7=CC(=O)OC7)CCC65O)C4)OC3C)OC2C)CC(O)C1O (stereo unspecified)
result: active

query: // outcome(item) with item = C[C@H]1CN([C@@H](C)CO)C(=O)c2cc(NC(=O)Nc3ccccc3)ccc2O[C@H]1CN(C)Cc1ccc(-c2ccccc2)cc1
result: inactive

query: // outcome(item) with item = Cc1noc(C)c1S(=O)(=O)Nc1ccc2c(c1)C(=O)N([C@@H](C)CO)C[C@@H](C)[C@@H](CN(C)C(=O)Nc1ccc(C(F)(F)F)cc1)OCCCC[C@@H](C)O2
result: inactive

query: // outcome(item) with item = Cc1noc(C)c1S(=O)(=O)Nc1ccc2c(c1)C(=O)N([C@H](C)CO)C[C@H](C)[C@H](CN(C)C(=O)Nc1ccc(C(F)(F)F)cc1)OCCCC[C@H](C)O2
result: active

query: // outcome(item) with item = C[C@H](CO)N1C[C@H](C)[C@@H](CN(C)Cc2ccc(Cl)c(Cl)c2)OCCCC[C@H](C)Oc2ccc(NC(=O)c3ccccc3)cc2C1=O
result: inactive

query: // outcome(item) with item = COCC(=O)N1C[C@@H](C)[C@@H](OC)CN(C)C(=O)c2cc(NC(=O)c3ccc(OC)cc3)ccc2OC[C@@H]1C
result: inactive

query: // outcome(item) with item = COc1cccc(S(=O)(=O)Nc2ccc3c(c2)OC[C@@H](C)N(C(=O)Cc2cccnc2)C[C@H](C)[C@@H](OC)CN(C)C3=O)c1
result: inactive
